# targetSystem: Solute carrier family 2, facilitated glucose transporter member 1 (Homo sapiens) (UniProt P11166)
# Sequence (P11166 whole entry): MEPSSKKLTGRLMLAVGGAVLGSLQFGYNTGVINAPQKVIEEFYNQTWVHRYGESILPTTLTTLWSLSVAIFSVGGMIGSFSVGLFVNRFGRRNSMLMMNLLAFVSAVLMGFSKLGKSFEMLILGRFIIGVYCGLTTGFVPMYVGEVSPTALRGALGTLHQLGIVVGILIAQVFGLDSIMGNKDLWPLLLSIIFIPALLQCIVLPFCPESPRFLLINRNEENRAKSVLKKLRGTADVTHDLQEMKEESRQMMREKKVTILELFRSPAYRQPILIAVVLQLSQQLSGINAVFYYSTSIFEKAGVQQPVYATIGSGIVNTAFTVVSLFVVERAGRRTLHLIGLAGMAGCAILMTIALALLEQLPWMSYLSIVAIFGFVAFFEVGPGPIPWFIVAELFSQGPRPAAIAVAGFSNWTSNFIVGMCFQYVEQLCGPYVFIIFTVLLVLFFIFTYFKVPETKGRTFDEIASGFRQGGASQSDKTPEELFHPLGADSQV
# methodNotes: ST_JUDE_LEISH: Cytotoxicity at 2uM final concentration against transgenic Leishmania Mexicana promastigotes LmGLUT1 that are glucose transport deficient and complemented with the human glucose transporter GLUT1. Activity is measured by DNA content using SYBR green in vitro
# Type: functional
Kindly state inhibition for each of the entries shown.
One number for each entry, in %.

Example molecules with recorded inhibition:
molecule	unitAbbreviation	inhibition
Cc1nc(-c2nc(NCCc3cnccn3)ncc2-c2ccsc2)sc1C	%	0.04
COC(=O)c1cccc(CNCc2cccc(-c3cccc(-c4nc5cccc(C)c5[nH]4)c3)c2)c1	%	9.22

Value sought for every listed molecule: inhibition.
1. CCn1cc(C=C2Oc3c(ccc(O)c3CN3CCCCC3C)C2=O)c2ccccc21 (stereo not given)
2. COc1ccc(-c2nc3cccnc3n2CC(=O)Nc2c(C)cc(C)cc2C)c(OC)c1
3. CCN(CC)CCN(Cc1ccc(-c2ccc(C(F)(F)F)cc2)cc1)C(=O)Cn1nc(-c2ccc(C(F)(F)F)cc2)ccc1=O

[4.31, -0.28, 1.46]

* * *

# targetSystem: Hexose transporter 1 (Plasmodium falciparum) (UniProt O97467)
# methodNotes: ST_JUDE_LEISH: Cytotoxicity at 2uM final concentration against transgenic Leishmania Mexicana promastigotes LmPfHT that are glucose transport deficient and complemented with the Plasmodium falciparum hexose transporter. Activity is measured by DNA content using SYBR green in vitro
# Assay type: functional
Kindly state inhibition for each of the entries shown.
Numbers only, in %.

Example compounds with recorded inhibition:
compound	unitAbbreviation	recordedMeasurement
CCCCCCCC1CC(CC(=O)Nc2ccnc3ccc(OC)cc23)CN1 (stereo not given)	%	0.43
CC(C)c1ccc(C(NC(=O)C2CCCCC2)c2ccc3cccnc3c2O)cc1 (stereo not given)	%	-0.57
CCOC(=O)C1=C(C)NC(C)=C(C(=O)OCC)C1(C(=O)OCc1ccccc1)c1cccc(C(F)(F)F)c1	%	3.39
CCOc1ccc(NC(=O)c2cn3nc(-c4ccc(OCC)cc4)cc3nc2C2CCNCC2)cc1	%	2.58

# ---- query compound ----
Please report the measured inhibition for CN1CCC(NCc2cccc(-c3ccc(S(=O)(=O)NCc4ccccc4)cc3)c2)CC1
7.9

* * *

# targetSystem: Hexose transporter 1 (Plasmodium falciparum) (UniProt O97467)
# methodNotes: ST_JUDE_LEISH: Cytotoxicity at 2uM final concentration against transgenic Leishmania Mexicana promastigotes LmPfHT that are glucose transport deficient and complemented with the Plasmodium falciparum hexose transporter. Activity is measured by DNA content using SYBR green in vitro
# Format: functional
Lab note: compare inhibition against 2%. Equal or greater, write met. Smaller, write not met.

molecule	classification
O=C(/C=C/c1ccc(F)c(Br)c1)NCCCCCN1CCC(c2c[nH]c3ccccc23)CC1	not met

Determine whether measured inhibition meets or exceeds 2% for CC(CCc1ccc(OCc2ccccc2)cc1)NCC(O)c1ccccc1 (centres undefined)
not met

Determine whether measured inhibition meets or exceeds 2% for COc1ccc(Nc2nc(N/N=C/c3ccc(O)cc3)nc(Nc3ccc([N+](=O)[O-])cc3)n2)cc1
met

Determine whether measured inhibition meets or exceeds 2% for CCCCCN1CCCC1CNS(=O)(=O)c1cccc(C(=O)Nc2cccc(C#N)c2)c1 (centres undefined)
met

* * *

# targetSystem: Solute carrier family 2, facilitated glucose transporter member 1 (Homo sapiens)
# methodNotes: ST_JUDE_LEISH: Cytotoxicity at 2uM final concentration against transgenic Leishmania Mexicana promastigotes LmGLUT1 that are glucose transport deficient and complemented with the human glucose transporter GLUT1. Activity is measured by DNA content using SYBR green in vitro
# Type: functional
measuredEndpoint: inhibition (%)
Give bare numbers, in %.

compound	inhibition [%]
CC(=O)Nc1nc(C(=O)Nc2cccc(-c3ccc(-c4nc5ccccc5[nH]4)cc3)c2)cs1	13
Cc1cccc2nc(-c3cccc(-c4cccc(NC(=O)CNc5ccc(C(N)=O)cc5)c4)c3)[nH]c12	4.73
Clc1cccc(CNc2nc(NCCc3c[nH]cn3)nc(NC3CCCCC3)n2)c1	3.76
Cc1cccc(-c2cccc(CNc3nc(NCCc4ccc(O)cc4)nc(N4CCNCC4)n3)c2)c1	2.88
COc1cc2c(cc1C(F)(F)F)N(C(=O)Nc1cc(F)c(F)c(-c3cccnc3)c1)CC2	10.1

Value sought for every listed compound: inhibition.
1. CN1CCN(CC(O)CNC(=O)Nc2ccc(Br)cc2)CC1 (centres undefined)
2. O=C(c1cc(-c2ccccc2)n[nH]1)N1CCN(S(=O)(=O)c2ccc(Cl)s2)CC1
3. COc1cc2nc(N3CCC(CNC(=O)c4ccc(-c5ccc(C(=O)N(C)C)cc5OCCN(C)C)cc4)CC3)nc(N)c2cc1OC
4. CN1CCN(C(C(=O)NCc2cc(Cl)cc(Cl)c2)c2ccc(NC(=O)Nc3ccccc3)cc2)CC1 (centres undefined)

1. 3.01
2. 4.06
3. 0.34
4. 2.24

* * *

# targetSystem: Solute carrier family 2, facilitated glucose transporter member 1 (Homo sapiens)
# methodNotes: ST_JUDE_LEISH: Cytotoxicity at 2uM final concentration against transgenic Leishmania Mexicana promastigotes LmGLUT1 that are glucose transport deficient and complemented with the human glucose transporter GLUT1. Activity is measured by DNA content using SYBR green in vitro
# Format: functional
measuredEndpoint: inhibition (%)
One number for each entry, in %.

Example compounds with recorded inhibition:
compound	targetSystem	measuredEndpoint	recordedMeasurement
N#Cc1ccc2c(c1)CCN(CCC1CCC(NC(=O)/C=C/c3cnc4ccccc4c3)CC1)CC2 (stereo not given)	Solute carrier family 2, facilitated glucose transporter member 1 (Homo sapiens)	inhibition	8.52
O=C(Nc1ccc(Cl)cc1)Nc1nc2cc([N+](=O)[O-])ccc2[nH]1	Solute carrier family 2, facilitated glucose transporter member 1 (Homo sapiens)	inhibition	0.18
Cc1c(Cl)cccc1S(=O)(=O)N1CCCCC(c2ccc(C(F)(F)F)cc2)=N1	Solute carrier family 2, facilitated glucose transporter member 1 (Homo sapiens)	inhibition	0.39

Value sought for every listed compound: inhibition.
1. CCc1c(CCNC/C=C/C=C/CNCCc2ccc(OC)c(OC)c2CC)ccc(OC)c1OC
2. COc1ccccc1CNC(=O)c1cc(C2CC2)nc2c1cnn2C(C)C

1: 3.5; 2: 15.2

* * *

# targetSystem: Solute carrier family 2, facilitated glucose transporter member 1 (Homo sapiens)
# methodNotes: ST_JUDE_LEISH: Cytotoxicity at 2uM final concentration against transgenic Leishmania Mexicana promastigotes LmGLUT1 that are glucose transport deficient and complemented with the human glucose transporter GLUT1. Activity is measured by DNA content using SYBR green in vitro
# Format: functional
measuredEndpoint: inhibition (%)
Give bare numbers, in %.

COc1ccc2c(c1)CCN(CCN1CCC(CNC(=O)c3ccc(-c4ccc(C#N)cc4)cc3)CC1)C2 -0.11
O=C(Nc1ccc(S(=O)(=O)N2CCCCC2)cc1)c1cc(-c2ccccc2O)n[nH]1 11.8
CN(C)CCCn1cncc1-c1ccc2ncnc(Nc3ccc4c(cnn4Cc4ccccc4)c3)c2c1 1.25
Cc1[nH]c(C)c(-c2ccc(Oc3ccc(Cl)cc3)cc2)c(=O)c1Br -0.61

# ---- query compound ----
Write down the reported inhibition (system: Solute carrier family 2, facilitated glucose transporter member 1 (Homo sapiens)) of O=C(NCCNc1ccnc(NCc2ccc(F)cc2)n1)c1cc2ccccc2s1
4.76

* * *

# targetSystem: Hexose transporter 1 (Plasmodium falciparum)
# methodNotes: ST_JUDE_LEISH: Cytotoxicity at 2uM final concentration against transgenic Leishmania Mexicana promastigotes LmPfHT that are glucose transport deficient and complemented with the Plasmodium falciparum hexose transporter. Activity is measured by DNA content using SYBR green in vitro
# Type: functional
measuredEndpoint: inhibition (%)
One number for each entry, in %.

Example molecules with recorded inhibition:
molecule	inhibition [%]
COC(=O)c1cccc(OCCNC2CCN(C[C@H](O)c3ccnc4ccc(OC)cc34)CC2)c1	-0.34
Cc1cccc2nc(-c3cccc(-c4ccc(NC(=O)CCc5c[nH]cn5)cc4)c3)[nH]c12	9.49
Cc1cc(N(C)C)nc(Nc2ccc(NC(=O)c3c(F)cccc3Cl)cc2)n1	7.84
O=C(N[C@H]1CCN(Cc2ccc(OCCCN3CCCCC3)cc2)C1)c1ccc(Cl)c(Cl)c1	3.98
COc1cc2nc(Nc3ccc4c(ccn4Cc4ccccc4)c3)nc(Nc3ccc4c(ccn4Cc4ccccc4)c3)c2cc1OC	1.97
Cc1cccc2nc(C(=O)Nc3nc(CN4CCC(C)CC4)cs3)cn12	-1.59
CCS(=O)(=O)Nc1ccc2c(c1)/C(=C(/Nc1ccc(CN3CCCCC3)cc1)c1ccccc1)C(=O)N2	89.4
Cc1nc(N)nc(N)c1-c1ccc(Cl)cc1	2.21

Value sought for every listed molecule: inhibition.
1. O=C(Nc1ccc(Cl)cc1)N[C@H]1CCN(Cc2ccc(OCCCN3CCCCC3)cc2)C1
2. COc1cc(-c2cnc(N)c(-c3nc4ccccc4[nH]3)c2)cc(OC)c1OC
3. CC(C)N1CCN(c2ccc(OCCCCN3CCN(c4cccc(Cl)c4Cl)CC3)cc2Cl)CC1
4. CN(Cc1ccc(C#N)cc1)C1CCN(c2cc(NC(=O)c3cccc(F)c3)ccn2)CC1

1. 1.45
2. 9.19
3. 0.44
4. -1.81
